Measured values drawn from ChEMBL document CHEMBL5247657 for this set.

Test Description: in vivo
Settings: Beagle, dog, po
Observable: bioavailability at 24 h (%)
Give just the number in %; leave the unit off.

May I ask what bioavailability at 24 h has been recorded for C=CC(=O)N1CCC([C@@H]2CCNc3c(C(N)=O)c(-c4cc(OC)c(C)c(OC)c4)nn32)CC1 ?
43

###

Test Description: Volume of distribution at steady state in Beagle dog at 1 mg/kg, iv measured upto 24 hrs by LC-MS/MS analysis
Format: ADME, organism-based, Canis lupus familiaris
Settings: in vivo, read-out: Vdss
Observable: Vd (L/kg)
Give just the number in L/kg; leave the unit off.

May I ask what Vd has been recorded for C=CC(=O)N1CCC([C@@H]2CCNc3c(C(N)=O)c(-c4cc(OC)c(C)c(OC)c4)nn32)CC1 ?
0.74
